Test system: Liver
Experiment: Drug level in Sprague-Dawley rat liver at 50 mg/kg, po after 3 hrs
Format: ADME, organism-based
Parameters: dose 50 mg/kg, route oral
Settings: in vivo
Let's look at some compounds and their measured Activity.

COMPOUND	MEASURED_ON	Activity [nmol/g]
C[C@@]1(O)[C@H](O)[C@@H](COP2(=O)OCC[C@@H](c3cccc(Cl)c3)O2)O[C@H]1n1cnc2c(N)ncnc21 (stereo not given in full)	Liver	2.9
C[C@@]1(O)[C@H](O)[C@@H](COP2(=O)OCC[C@@H](c3ccncc3)O2)O[C@H]1n1cnc2c(N)ncnc21 (single isomer, unassigned)	Liver	3.6
C[C@@]12OC(=O)O[C@@H]1[C@@H](COP1(=O)OCC[C@@H](c3cccc(Cl)c3)O1)O[C@H]2n1cnc2c(N)ncnc21 (stereo not given in full)	Liver	29.2
C[C@@]12OC(=O)O[C@@H]1[C@@H](COP1(=O)OCC[C@@H](c3ccncc3)O1)O[C@H]2n1cnc2c(N)ncnc21 (stereo not given in full)	Liver	28.3
C[C@@]12OC(=O)O[C@@H]1[C@@H](COP1(=O)OCCC(c3cc(Cl)cc(Cl)c3)O1)O[C@H]2n1cnc2c(N)ncnc21 (stereo not given in full)	Liver	5
C[C@@]1(O)[C@H](O)[C@@H](COP2(=O)OCCC(c3cccc(F)c3F)O2)O[C@H]1n1cnc2c(N)ncnc21 (stereo not given in full)	Liver	8.2
C[C@@]12OC(=O)O[C@@H]1[C@@H](COP1(=O)OCCC(c3ccc(Cl)c(Cl)c3)O1)O[C@H]2n1cnc2c(N)ncnc21 (stereo not given in full)	Liver	11.8
C[C@@]1(O)[C@H](O)[C@@H](COP2(=O)OCCC(c3cc(F)cc(F)c3)O2)O[C@H]1n1cnc2c(N)ncnc21 (stereo not given in full)	Liver	4.1
C[C@@]12OC(=O)O[C@@H]1[C@@H](COP1(=O)OCCC(c3cccc(F)c3)O1)O[C@H]2n1cnc2c(N)ncnc21 (stereo not given in full)	Liver	22.9
C[C@@]1(O)[C@H](O)[C@@H](COP2(=O)OCCC(c3ccc(Cl)c(Cl)c3)O2)O[C@H]1n1cnc2c(N)ncnc21 (stereo not given in full)	Liver	2
CC(C)[C@H](N)C(=O)O[C@@H]1[C@@H](COP2(=O)OCCC(c3cccc(Cl)c3)O2)O[C@@H](n2cnc3c(N)ncnc32)[C@]1(C)O (stereo not given in full)	Liver	3.1
CCCCCOC(=O)Nc1ncnc2c1ncn2[C@@H]1O[C@H](COP2(=O)OCCC(c3cccc(Cl)c3)O2)[C@@H](O)[C@@]1(C)O (stereo not given in full)	Liver	1.6
C[C@@]12OC(=O)O[C@@H]1[C@@H](COP1(=O)OCCC(c3cc(F)cc(F)c3)O1)O[C@H]2n1cnc2c(N)ncnc21 (stereo not given in full)	Liver	11.2
C[C@@]1(O)[C@H](O)[C@@H](COP2(=O)OCCC(c3cccc(F)c3)O2)O[C@H]1n1cnc2c(N)ncnc21 (stereo not given in full)	Liver	4.1
C[C@@]1(O)[C@H](O)[C@@H](COP2(=O)OCCC(c3cc(Cl)cc(Cl)c3)O2)O[C@H]1n1cnc2c(N)ncnc21 (stereo not given in full)	Liver	2.4

###

Assay: Chemical stability at pH 7.0
Assay type: physicochemical
Conditions: buffer
PROPERTY_NAME: half-life

COMPOUND	MEASUREMENT
C[C@@]12OC(=O)O[C@@H]1[C@@H](COP1(=O)OCC[C@@H](c3ccncc3)O1)O[C@H]2n1cnc2c(N)ncnc21 (stereo partly specified)	13 h
